system-name: BTK (Homo sapiens, UniProt Q06187)
Sequence (Q06187 402-655 limits assumed): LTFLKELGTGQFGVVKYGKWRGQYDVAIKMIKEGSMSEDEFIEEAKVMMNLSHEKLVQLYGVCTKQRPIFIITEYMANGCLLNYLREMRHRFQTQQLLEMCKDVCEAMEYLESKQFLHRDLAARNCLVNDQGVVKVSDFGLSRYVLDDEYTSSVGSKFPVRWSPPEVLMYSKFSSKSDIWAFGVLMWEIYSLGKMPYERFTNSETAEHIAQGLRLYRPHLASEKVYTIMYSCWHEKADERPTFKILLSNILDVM
assay-protocol: biochemical
measurement-context: read-out: BTK inhibition (%), 0.75 uM BTK, […] probe 3l, 15 min preincubation
Each entry below carries its reported inhibition at 10 µM.
Write the number in % without appending the unit.

Worked set:
{"molecule": "COc1c(C)c(C(=O)c2ccc(N)c(C(=O)O)c2)n2ccccc12 [PCM-0215263]", "system-name": "BTK (Homo sapiens, UniProt Q06187)", "measure": "inhibition at 10 µM", "result": 17.2}
{"molecule": "COc1ccc(C[C@@H]2c3cc(Oc4cc(C[C@@H]5c6cc(OC)c(OC)cc6CCN5C)ccc4O)c(OC)cc3CCN2C)cc1 [PCM-0215948]", "system-name": "BTK (Homo sapiens, UniProt Q06187)", "measure": "inhibition at 10 µM", "result": 4.6}
{"molecule": "Cc1nn(C)c2nc(NNC(=O)Nc3cc(Cl)nc(Cl)c3)cc(C(C)C)c12 [PCM-0215784]", "system-name": "BTK (Homo sapiens, UniProt Q06187)", "measure": "inhibition at 10 µM", "result": 54.8}
{"molecule": "C[C@@H](NCCc1ccc(O)cc1)[C@@H](O)c1ccc(O)cc1 [PCM-0214689]", "system-name": "BTK (Homo sapiens, UniProt Q06187)", "measure": "inhibition at 10 µM", "result": 0}
{"molecule": "C/C=C1\\C(=O)C[C@H]2[C@@H]3CCC4=CC(=O)CC[C@]4(C)[C@H]3CC[C@]12C [PCM-0216120]", "system-name": "BTK (Homo sapiens, UniProt Q06187)", "measure": "inhibition at 10 µM", "result": -1.6}

Please give the measured inhibition at 10 µM for this molecule: O=C(O)[C@@]1(CCCCCCOc2ccc(Cl)cc2)CO1 [PCM-0215742]
-1.5

# input molecule: C[C@H]1CN(C[C@H](Cc2ccccc2)C(=O)NCC(=O)O)CC[C@@]1(C)c1cccc(O)c1 [PCM-0216566] ; wanted: its inhibition at 10 µM
-13.1

Item Cc1cc(/C=C2/SC(=S)NC2=O)c(C)n1-c1cccnc1 [PCM-0215351] has what recorded inhibition at 10 µM?
10.8

====

system-name: BTK (Homo sapiens, UniProt Q06187)
assay-protocol: biochemical
measurement-context: read-out: BTK inhibition (%), 0.75 uM BTK, […] probe 3l, 15 min preincubation
Listing of recorded inhibition at 10 µM by entry.
# unit: % | format: bare number

Sample records with inhibition at 10 µM:
{"molecule": "CC(C)(C(=O)O)c1ccc(C(O)CCCN2CCC(C(O)(c3ccccc3)c3ccccc3)CC2)cc1 (centres unmarked)", "inhibition at 10 µM [%]": -10.3}
{"molecule": "C[C@@H]1CC[C@]2(C(=O)O)CC[C@]3(C)C(=CC[C@@H]4[C@@]5(C)CC[C@H](O[C@@H]6OC[C@H](O)[C@H](O)[C@H]6O)C(C)(C)[C@@H]5CC[C@]43C)[C@@H]2[C@]1(C)O", "inhibition at 10 µM [%]": 14.7}
{"molecule": "c1cc(CN2CCCNCCNCCCNCC2)ccc1CN1CCCNCCNCCCNCC1", "inhibition at 10 µM [%]": 6.8}
{"molecule": "CC(C)c1cnn2c(NCc3ccccc3-n3cccn3)nc(OC3CCCNC3)nc12 (centres unmarked)", "inhibition at 10 µM [%]": -2.8}
{"molecule": "COC(=O)CC1CC(c2ccc(O)cc2)=NO1 (centres unmarked)", "inhibition at 10 µM [%]": -16.6}

Quick check: inhibition at 10 µM of OCCc1c[nH]c2ccccc12 ?
-24.1
